Test system: SW-620
Assay: NCI tumour cell line growth inhibition, 48 h
Calls of active or inactive are those of the source. Rule as the data show it: active = GI50 up to about 1.1 µM and inactive = higher.
Measured metric: GI50

Consider the following illustrative entries.
1. NNC(=O)CNc1cccc(Br)c1; > 100 µM (inactive)
2. CCOc1cc(/C=C/C=C/c2ccc(N(C)C)cc2)[s+]c2ccccc12; 30.7 µM (inactive)
3. O[C@]12c3ccccc3C1CCCC2N1CCOCC1 (stereo partly drawn); > 100 µM (inactive)
4. CCOP1(=O)CC(C)=C(Cl)C(OC)C1 (stereo not drawn); > 100 µM (inactive)
5. O=c1[nH]ncc2[nH]c3c(c12)CCCc1ccccc1-3; 43.2 µM (inactive)
6. CC1=CC2C(=O)N(c3ccccc3)C(=O)C2CC1n1[nH]c(=O)n(Cc2ccccc2)c1=O (stereo not drawn); > 100 µM (inactive)
7. CCCCON1C[C@H](OC(C)=O)C(OC(C)=O)[C@H](OC(C)=O)C1 (stereo partly drawn); > 10 µM (inactive)

Recorded GI50 of COc1ccc(CNC2=Nc3ccncc3S(=O)(=O)N2c2ccccc2)cc1 , please.
33 µM (inactive)

###

Assign GI50 to each entry below.
Tested on: NCI-H460
Assay: NCI tumour cell line growth inhibition, 48 h
Calls of active or inactive are those of the source. No stated cut-off is given here; in the data, active = GI50 up to about 1.1 µM and inactive = higher. *1 amine or outer side, *2 acyl side, *3 side chain or, on linkers, in order; H or OH if unused. Where a SMILES comes first, the peptide text is derived from it. The star is where a group is joined. γGlu = O=C(O)[CH](CCC(=O)[*:2])N[*:1]; NHOH = ON*

1) Cc1nc2c(=O)[nH]c(=O)n(C)c2[nH]c1=O.c1ccncc1; > 100 µM (inactive)
2) CC1(C)C[C@@H]2C1CCC1(C)CC2(O)CC[C@H]1O (some centres not stated); > 100 µM (inactive)
3) NC(CCC(=O)NC(CCC(=O)NO)C(=O)NCC(=O)O)C(=O)O (configuration not stated) (γGlu-Glu(NHOH)-Gly-OH; configuration not given here); > 100 µM (inactive)

Give GI50 for each listed item.
1. COCCN1C(=O)C2c3[nH]c4ccccc4c3C3CCC(C(C)(C)C)CC3C2C1=O (configuration not stated)
2. CC(=O)NNc1nc(C)c(C(=O)NNC(=O)C(=O)Nc2c(C)cccc2C(C)(C)C)s1
3. O=C(NC(Cc1ccccc1)C(=O)CCl)OCc1ccccc1 (configuration not stated)

["14.8 µM (inactive)", "52.2 µM (inactive)", "5.74 µM (inactive)"]

Recorded GI50 of COC(=O)C1=C(O)C(C(=O)OC)[C@@]2(O)[C@@H](C(=O)OC)[C@H](C)[C@@H](C)[C@@H]1[C@@H]2C(=O)OC (some centres not stated) , please.
44.9 µM (inactive)

###

System: MOLT-4
Test: NCI tumour cell line growth inhibition, 48 h
Activity calls are given as the source filed them. Rule as the data show it: active = GI50 up to about 1.1 µM and inactive = higher.
Measured metric: GI50

Consider the following illustrative entries.
1) COc1nc(C#CC(C)(C)C)nc(OC)n1; 35.6 µM (inactive)
2) C=C[C@@H]1C[C@]2(C(=O)OC)Cc3nc4ccccc4nc3CC(C(=O)OC)=C2O1; 42.5 µM (inactive)
3) C/C(=N\N=C(N)N)c1sc(-c2nc(C)c(/C(C)=N/N=C(N)N)s2)nc1C; > 57.9 µM (inactive)
4) COc1ccc(Cc2cc(OC)c(OC)c(OC)c2)cc1; 0.221 µM (active)
5) CCN(CC)c1c(-c2c(N(CC)CC)c(OC(C)=O)c3sccn3c2=O)c(=O)n2ccsc2c1OC(C)=O; > 100 µM (inactive)

# context switch: different molecule, same GI50
Recorded GI50 of CC1=C(Cl)C=CP(=O)(OC(C)C)C1 (stereo unspecified) , please.
40.7 µM (inactive)
